// provenance: PubChem BioAssay (NCI)

Below, each of the compounds is paired with its reported log10(TGI) value.
Test system: IGROV1 ovarian
run-description: NCI tumour cell line growth inhibition, 48 h
# log10 transformed; quantity=TGI; unit=µM

Worked examples follow.
compound=COc1ccc2c(c1)-c1nc(=S)n(CCCN(C)C)c3ccc([N+](=O)[O-])c(c13)N2 observed_measurement=0.38
compound=Clc1ccccc1-c1nc2ccc(C34CC5CC(CC(C5)C3)C4)cc2[nH]1 observed_measurement=1.70
compound="CCC(C)(C)C1CCC2c3c([nH]c4ccccc34)C3C(=O)N(c4ccc(OC)cc4)C(=O)C3C2C1 (stereo not given)" observed_measurement=1.96
compound="CCCCCCCCCCCCN(CC(O)C(O)C(OC1OC(CO)C(O)C(O)C1O)C(O)CO)C(=O)CCCCCCCCCCC (stereo not given)" observed_measurement=1.55
compound=C#CCNC(=O)c1cccc2c1cc(C)n2-c1nc2c(c(NCc3ccccc3)n1)CCCC2 observed_measurement=-0.99
compound="COc1ccc(/C=C2\\CCC(C)C3C2=NN(c2ccccc2)C3c2ccc(OC)c(OC)c2)cc1OC (stereo not given)" observed_measurement=0.92
compound=O=C1Nc2ccccc2C1(c1ccc(O)cc1)c1ccc(O)cc1 observed_measurement=1.59

Task item: Query (compound): CCOCc1c(C)cc(C)c(C2C(C(=O)c3ccccc3)N3c4ccccc4C=CC3C2(C#N)C(=O)OCC)c1C (stereo not given) ; field requested: log10(TGI)
Reply: 1.67
